# credit: paper PMC7744439

Below, each entry is listed with its recorded pIC50.
- testedOn: HDAC6 (Homo sapiens)
- Sequence (Q9UBN7 whole entry, species assumed): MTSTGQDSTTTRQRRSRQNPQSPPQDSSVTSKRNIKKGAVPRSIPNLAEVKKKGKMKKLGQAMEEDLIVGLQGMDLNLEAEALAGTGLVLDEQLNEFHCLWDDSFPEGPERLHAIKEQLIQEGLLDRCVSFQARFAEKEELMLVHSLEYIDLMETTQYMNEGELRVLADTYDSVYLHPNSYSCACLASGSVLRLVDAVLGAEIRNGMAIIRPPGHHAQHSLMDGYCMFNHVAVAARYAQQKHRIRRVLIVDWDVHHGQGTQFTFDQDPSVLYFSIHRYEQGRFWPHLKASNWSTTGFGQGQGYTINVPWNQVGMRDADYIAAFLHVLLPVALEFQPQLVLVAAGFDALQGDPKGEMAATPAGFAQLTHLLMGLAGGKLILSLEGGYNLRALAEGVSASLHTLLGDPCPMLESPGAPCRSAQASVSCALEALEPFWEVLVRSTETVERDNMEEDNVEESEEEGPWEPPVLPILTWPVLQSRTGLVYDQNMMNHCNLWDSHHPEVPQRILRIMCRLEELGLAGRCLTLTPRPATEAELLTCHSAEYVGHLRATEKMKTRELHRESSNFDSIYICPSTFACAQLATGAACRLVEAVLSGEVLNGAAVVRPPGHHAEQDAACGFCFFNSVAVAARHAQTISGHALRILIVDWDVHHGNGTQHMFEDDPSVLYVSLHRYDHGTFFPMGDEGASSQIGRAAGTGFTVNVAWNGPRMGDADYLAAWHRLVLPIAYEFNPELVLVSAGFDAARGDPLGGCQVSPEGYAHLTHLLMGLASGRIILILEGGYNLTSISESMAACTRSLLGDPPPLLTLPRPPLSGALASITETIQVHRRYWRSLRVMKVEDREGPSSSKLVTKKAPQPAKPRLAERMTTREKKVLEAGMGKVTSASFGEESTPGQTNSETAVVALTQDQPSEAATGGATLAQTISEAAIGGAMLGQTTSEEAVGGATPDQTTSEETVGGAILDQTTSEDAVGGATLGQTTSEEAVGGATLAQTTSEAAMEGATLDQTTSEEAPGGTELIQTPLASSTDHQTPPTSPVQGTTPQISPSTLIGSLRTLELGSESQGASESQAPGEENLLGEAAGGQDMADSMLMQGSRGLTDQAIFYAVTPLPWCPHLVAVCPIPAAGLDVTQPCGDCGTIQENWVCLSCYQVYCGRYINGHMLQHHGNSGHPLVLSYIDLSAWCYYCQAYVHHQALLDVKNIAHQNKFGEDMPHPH
- measurementNotes: HDAC6 enzymatic inhibition
- Assay type: biochemical
pIC50: −log10 of the molar value.
measure: pIC50

>>> val("O=C(CS)NCCCCCn1ccc2cc(Cl)c(Cl)cc21 [Compound 74]")
5.63
>>> val("O=C(CS)NCCCCCC(=O)Nc1ccccc1 [Compound 11]")
6.47
